B1: tRNA (parent)
chain: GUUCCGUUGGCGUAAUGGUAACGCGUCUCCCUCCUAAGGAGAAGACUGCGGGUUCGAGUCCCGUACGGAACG

variants of: B1; experiment: yeast fitness, log relative to wild type (ln ratio); higher = fitter; tRNA-Arg(CCU), competitive growth, 37 C, 1 M NaCl
yeast fitness (ln): recorded values

The following variants have reported results that may help.
[
  {
    "mutation-annotation": "U2C G6A C27U C66U A70G C71U",
    "reading": -0.0401
  },
  {
    "mutation-annotation": "U2G G6U C66U A70U C71U",
    "reading": -0.303
  },
  {
    "mutation-annotation": "U2G G6U C66A A69G A70U C71U",
    "reading": -0.726
  },
  {
    "mutation-annotation": "U2G A43C C66U A70G",
    "reading": -0.156
  },
  {
    "mutation-annotation": "G1A U2C C27U C66U A70U",
    "reading": -0.108
  },
  {
    "mutation-annotation": "G1A C66A A70G",
    "reading": -0.0993
  },
  {
    "mutation-annotation": "G6U C27U C66U A69G A70U",
    "reading": -0.329
  },
  {
    "mutation-annotation": "G6U C27U A43C C46U C66A A69G C71U",
    "reading": -0.439
  },
  {
    "mutation-annotation": "G1A U2G G6U C27U C46U C66A A69G A70G C71U",
    "reading": -0.417
  },
  {
    "mutation-annotation": "G1A U2G G6A C27U C46U C66A A70U C71U",
    "reading": -0.249
  }
]

Lookup result for U2G G6U A43C C46U C66U A70U C71U ; measured yeast fitness (ln): -0.22

Sample G1A G6U C27U A69G C71U ; yeast fitness (ln) observed: -0.371

// yeast fitness (ln) lookup, variant = U2C C27U C46U C66U A70G C71U , result: -0.075

# yeast fitness (ln) (variant: G6A C27U A43C C66U A69G C71U ) is -0.368

Value of measured yeast fitness (ln) for the entry G1A G6A C66A A70G C71U : -0.267

response.value for U2G C66U A69G A70G C71U (field: yeast fitness (ln)) = -0.204

So for G1A G6U C46U C66U A69G A70G , the logged yeast fitness (ln) turned out to be -0.205

G6A C27U C66A A70U has a reported yeast fitness (ln) of -0.107

Noted for G1A U2C G6U A43C C46U C66U A69G A70G C71U : its yeast fitness (ln) reads -0.201
